Test: method code SF-HPLC, from PMID: 2780588
parameter-measured: logP

sample-smiles: CCCCCCCCNC(=O)Cc1ccc(O)c(OC)c1
logP: 2.94

Now look at this entry.
Endpoint output: logP of CCCCCCCCOC(=O)Cc1ccc(O)c(OC)c1 . Value?
4.04

* * *

Reported logP values follow for various compounds
Returns: the value as a bare number; no unit string appended.

Solved cases below.
sample-smiles: Cc1c(Cl)cccc1Cl
result-number: 4.29
//
sample-smiles: Cc1ccc(Cl)cc1
result-number: 3.42
//
sample-smiles: ClC(Cl)(Cl)C(Cl)(Cl)Cl
result-number: 3.82
//
sample-smiles: Nc1cc(Cl)c(Cl)c(Cl)c1Cl
result-number: 3.94

Now look at this entry.
Endpoint output: logP of Nc1ccccc1Cl . Value?
1.74
